- Test target: PfCRT^Dd2 (Plasmodium falciparum, UniProt Q9N623, A220S/I356T/K76T/M74I/N326S/N75E/Q271E/R371I)
- Sequence (Q9N623 whole entry A220S/I356T/K76T/M74I/N326S/N75E/Q271E/R371I): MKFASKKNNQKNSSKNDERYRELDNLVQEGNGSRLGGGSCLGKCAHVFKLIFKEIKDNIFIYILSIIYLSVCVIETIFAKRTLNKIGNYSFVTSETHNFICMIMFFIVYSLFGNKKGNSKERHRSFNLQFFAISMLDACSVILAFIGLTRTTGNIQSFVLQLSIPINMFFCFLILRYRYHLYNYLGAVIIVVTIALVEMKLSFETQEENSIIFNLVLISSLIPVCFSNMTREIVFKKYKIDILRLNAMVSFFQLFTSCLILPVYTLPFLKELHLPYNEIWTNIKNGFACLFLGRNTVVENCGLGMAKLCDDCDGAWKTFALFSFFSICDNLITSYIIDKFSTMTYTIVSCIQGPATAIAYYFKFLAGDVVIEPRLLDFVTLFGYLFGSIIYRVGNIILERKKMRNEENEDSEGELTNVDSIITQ
- Run description: cell-based
- Assay type: cell-based
- Cond: […], pH 5.5, read-out: PfCRT-mediated [3H]CQ transport, trans-stimulation (% PfCRTDd2 control), [test solute]i = 5 mM (intracellular); PfCRTDd2 oocytes; normalised to oocyte type control
Measured property: activity at 5000 µM (%)
Write it as a number; the unit % goes unstated.

Molecule	activity at 5000 µM / %
N[C@@H](Cc1c[nH]c2ccccc12)C(=O)O	98
N[C@@H](Cc1ccc(O)cc1)C(=O)O	99
N[C@@H](CS)C(=O)O	97
CC(C)C[C@H](N)C(=O)O	95
NCCCC[C@H](N)C(=O)O	97

We next turn to a different molecule, shown below.
Input: Given the molecule `C[C@H](N)C(=O)O` , write its reported activity at 5000 µM.
Output: 95
